- Test system: Sprague-Dawley rats
- TEST_NAME: Mechanical and thermal pain behavior testing (von Frey monofilaments, radiant heat)
- Assay type: in vivo, rat
- CONDITION_SUMMARY: antagonist i.p. prior to OR486
QUANTITY: blockade of OR486-induced hyperalgesia / heightened pain sensitivity

COMPOUND	RESULT
O=C(CCCN1CCC2(CC1)C(=O)NCN2c1ccccc1)c1ccc(F)cc1	failed to block
Cc1ccc(N(CC2=NCCN2)c2cccc(O)c2)cc1	failed to block
Cc1ccc(OCC(O)C(C)NC(C)C)c2c1CCC2 (single isomer, unassigned; (-))	partially blocked
CCc1ccccc1OC[C@@H](O)CN[C@H]1CCCc2ccccc21 [SR59230A]	partially blocked
